Each entry below lists one item and its recorded EC50 value.
- Measurement target: T1, recombinant human CTLA4 protein with human IgG1 Fc tag at the C-terminus (Acro biosystems, Cat#CT4-H5255) (human, UniProt P16410 37-162)
- T1 construct: bought protein; also called human CTLA4-Fc; CTLA4-Fc; not shown: human IgG1 Fc tag at the C-terminus
- T1 sequence (looked up): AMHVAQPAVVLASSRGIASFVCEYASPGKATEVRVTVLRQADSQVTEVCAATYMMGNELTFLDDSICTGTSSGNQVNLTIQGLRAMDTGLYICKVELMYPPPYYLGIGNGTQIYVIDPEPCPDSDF
- Assay details: capture ELISA: antibody captured on anti-mouse IgG F(ab')2 coated plate, biotin human CTLA4-Fc 26 ng/ml, streptavidin-HRP, OD(450-630)
Hi! Could you send only the number? It should be in nM, unit omitted.

Prompt line: If you can, please state the reported EC50 value of mouse anti-CTLA4 monoclonal antibody D1G6 (antibody, V domains shown, mouse mAb purified from hybridoma supernatant) VH: EVQLQQSGPELVKPGASVKLSCKASGNTFTTYVLNWVKQKPGQGLEWIGYFNPYNDAIKYNEKFKGKATLTSDKSSSTAYMELSSLTSEDSAVYYCARFEGGGYAMDYWGQGTSVTVSS VL: DIVLTQSPASLAVSLGQRATISCRASQSVGTSSYSYIHWYQQKPGQPPKLLIKYASDLESGVPARFSGSGSGTDFTLNIHPVEEEDTATYYCQHSWEIPYTFGGGTKLEIK .
Response line: 0.0979

Prompt line: Now consider mouse anti-CTLA4 monoclonal antibody D2A4 (antibody, V domains shown, mouse mAb purified from hybridoma supernatant) VH: QVQLQQPGAELVKPGSSVNLSCKASGYTFTSYWVHWVKQGPGRGLEWIGRIDPNRGGTYYNENFKTKAALTVDSPSSTAYMHLSSLTSEDSAVYYCARGGLNYYALDYWGQGTSVTVSS VL: DIQMTQSPASLFASLGETVTITCRASENIYSYLAWYQQKQGKSPQLLVYNANTLTEGVPSSFSGSGSGTQFSLKINTLQPEDFGTYYCQHHYGIPFTFGSGTKLEIK .
Response line: 0.245

Prompt line: Now consider mouse anti-CTLA4 monoclonal antibody D1D5 (antibody, V domains shown, mouse mAb purified from hybridoma supernatant) VH: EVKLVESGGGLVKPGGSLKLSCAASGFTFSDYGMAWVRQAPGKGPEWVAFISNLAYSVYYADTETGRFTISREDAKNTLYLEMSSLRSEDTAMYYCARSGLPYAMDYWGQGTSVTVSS VL: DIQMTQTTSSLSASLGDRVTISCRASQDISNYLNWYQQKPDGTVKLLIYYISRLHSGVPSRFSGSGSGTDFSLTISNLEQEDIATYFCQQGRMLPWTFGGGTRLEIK .
Response line: 0.103
